Catalogue of IC50 values
molecular target: Itk (Homo sapiens, UniProt Q08881); construct: Kinases are expressed as either kinase domains or full length constructs; made in house; assay: Kinase inhibition assay (33P transfer), Itk; format: biochemical; settings: read-out: Itk-1
Sequence (Q08881 whole entry, species assumed, the tested form may be a part): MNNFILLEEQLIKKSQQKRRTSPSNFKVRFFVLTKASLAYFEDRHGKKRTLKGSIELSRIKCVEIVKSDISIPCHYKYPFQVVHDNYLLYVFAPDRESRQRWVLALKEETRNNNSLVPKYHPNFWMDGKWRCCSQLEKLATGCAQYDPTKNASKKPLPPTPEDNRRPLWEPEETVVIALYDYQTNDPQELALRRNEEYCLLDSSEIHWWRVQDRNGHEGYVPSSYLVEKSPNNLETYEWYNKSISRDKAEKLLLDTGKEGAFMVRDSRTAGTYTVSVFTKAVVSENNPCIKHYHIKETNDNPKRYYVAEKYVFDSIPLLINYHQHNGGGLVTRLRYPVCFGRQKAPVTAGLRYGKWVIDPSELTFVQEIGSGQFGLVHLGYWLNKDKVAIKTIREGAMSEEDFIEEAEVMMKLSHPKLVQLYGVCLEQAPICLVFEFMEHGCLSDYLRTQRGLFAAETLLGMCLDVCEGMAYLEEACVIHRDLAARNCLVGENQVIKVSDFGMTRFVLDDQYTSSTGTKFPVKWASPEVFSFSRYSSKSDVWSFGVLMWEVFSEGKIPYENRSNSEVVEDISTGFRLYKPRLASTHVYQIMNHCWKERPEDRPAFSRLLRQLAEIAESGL

Query block: Field request: IC50 | item: "COc1ccc(Nc2ncnc(N3CCCc4ccc(C(F)(F)F)cc43)n2)cc1OC"
Result block: > 10.4 µM

Query block: I have this compound here, "COc1ccc(CNc2nc3ccccc3n2-c2ncnc(Nc3cc(OC)c(OC)c(OC)c3)n2)cc1OC" , and I need its recorded IC50.
Result block: > 8.28 µM

Query block: IC50 for "CC(=O)Nc1ccc(Nc2ncnc(-n3c(N)nc4ccccc43)n2)cc1" ?
Result block: 1.11 to 6.66 µM

Query block: Find the recorded IC50 belonging to "CC(=O)NS(=O)(=O)c1ccc(Nc2ncnc(N(C)c3cccc(Cl)c3)n2)cc1" and report it.
Result block: > 10.4 µM

Query block: Entry "CN(c1cccc(Cl)c1)c1ncnc(Nc2ccc3cn[nH]c3c2)n1" has what IC50?
Result block: > 12.8 µM

Query block: // returns reported IC50 for input "Nc1nc2ccccc2n1-c1ncnc(N2C(=O)c3ccccc3C2=O)n1"
Result block: > 12.6 µM

Query block: For "COc1cc(Nc2ncnc(-n3c(NCc4ccccn4)nc4ccccc43)n2)cc(OC)c1OCCN1CCOCC1" , what is its reported IC50?
Result block: > 7.71 µM

Query block: Name the recorded IC50 for "Nc1nc2ccccc2n1-c1ncnc(Nc2ccccc2)n1" .
Result block: 1.32 to 7.91 µM

Query block: For the compound "COc1cc(Nc2ncnc(-c3cccnc3NCc3ccccn3)n2)cc(OC)c1OC" , what IC50 is on record?
Result block: > 10.1 µM

Query block: Name the recorded IC50 for "COc1cc(Nc2ncnc(N(C)c3cccc(Cl)c3)n2)cc(OC)c1" .
Result block: > 12.1 µM

Query block: Fill in: IC50 of "Cc1ccc2c(c1)CCCN2c1ncnc(NCc2ccccn2)n1" is ___
Result block: > 13.5 µM

Query block: What IC50 value was documented for this compound, "O=C(O)Cc1cccc(Nc2ncnc(Nc3cc(-c4ccco4)n[nH]3)n2)c1" ?
Result block: 1.06 to 6.36 µM

Query block: Quick one: IC50 for COC(=O)C(c1ccccc1)c1ncnc(Nc2cc(OC)c(OC)c(OC)c2)n1 (stereo not drawn) ?
Result block: > 11 µM

Query block: Look up IC50 for this compound: "COc1cc(Nc2ncnc(-n3c(N)nc4ccccc43)n2)ccc1OCCN1CCOCC1"
Result block: > 9.73 µM

Query block: Return reported IC50; argument: "COc1ccc2c(c1)CCCN2c1ncnc(Nc2cc(OC)c(OC)c(OC)c2)n1"
Result block: > 10.6 µM

Query block: Return reported IC50; argument: "Nc1nc2ccccc2n1-c1ncnc(Nc2ccc(N3CCOCC3)cc2)n1"
Result block: 6.18 to 9.01 µM

Query block: Would you kindly share the measured IC50 for "CCc1ccc(Nc2ncnc(-n3c(N)nc4ccccc43)n2)cc1" ?
Result block: 7.24 to 10.6 µM

Query block: IC50 lookup needed for "COc1ccc(N(C)c2ncnc(-n3c(N)nc4ccccc43)n2)cc1" , thanks.
Result block: > 13 µM

* * *

Molecular target: Zap-70 (Homo sapiens)
Construct: Kinases are expressed as either kinase domains or full length constructs; made in house
Sequence (P43403 1-619): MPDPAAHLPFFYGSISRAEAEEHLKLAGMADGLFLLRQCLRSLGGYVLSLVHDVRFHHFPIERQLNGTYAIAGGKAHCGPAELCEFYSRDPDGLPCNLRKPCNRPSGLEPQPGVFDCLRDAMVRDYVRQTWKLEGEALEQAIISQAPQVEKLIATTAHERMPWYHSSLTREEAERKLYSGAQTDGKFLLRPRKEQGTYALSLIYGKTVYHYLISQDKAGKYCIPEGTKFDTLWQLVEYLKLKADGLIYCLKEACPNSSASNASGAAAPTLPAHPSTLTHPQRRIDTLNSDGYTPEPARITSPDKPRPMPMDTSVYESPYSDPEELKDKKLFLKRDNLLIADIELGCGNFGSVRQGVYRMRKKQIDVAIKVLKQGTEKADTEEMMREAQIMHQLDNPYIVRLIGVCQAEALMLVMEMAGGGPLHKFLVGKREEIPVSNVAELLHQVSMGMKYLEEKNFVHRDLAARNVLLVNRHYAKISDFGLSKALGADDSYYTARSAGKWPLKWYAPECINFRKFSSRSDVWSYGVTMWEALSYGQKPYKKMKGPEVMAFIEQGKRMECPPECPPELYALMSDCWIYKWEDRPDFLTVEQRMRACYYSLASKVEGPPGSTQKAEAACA
Assay: Kinase inhibition assay (33P transfer), Zap-70
Type: biochemical
Conditions: read-out: Zap-1
Reported endpoint: IC50

Consider the following illustrative entries.
Query block: Query (compound): CC1CCc2ccccc2N1c1ncnc(N2c3ccccc3CCC2C)n1 (stereo not drawn) ; field requested: IC50
Result block: > 12.1 µM

Query block: What value of IC50 has been reported for the following compound? "COc1cc(Nc2ncnc(-n3c(NCc4ccc(Cl)cc4F)nc4ccccc43)n2)cc(OC)c1OC"
Result block: > 8.4 µM

Query block: May I ask what IC50 has been recorded for "COc1cc(Nc2ncnc(Nc3cccc(C(C)=O)c3)n2)cc(OC)c1OC" ?
Result block: > 11.4 µM

Query block: Please look up its IC50: "Nc1nc2ccccc2n1-c1ncnc(Nc2ccc(N3CCOCC3)cc2)n1"
Result block: > 11.6 µM

Query block: For "COc1cc(Nc2ncnc(-c3ccc(NCc4ccccc4)nc3)n2)cc(OC)c1OC" , what is its reported IC50?
Result block: > 10.1 µM

Further cases:
Query block: Dear colleague, I am looking for the recorded IC50 of the following compound: "Nc1nc2ccccc2n1-c1ncnc(Nc2cccc(CC(=O)NCc3ccccn3)c2)n1"
Result block: > 9.97 µM

Query block: For the compound "COc1ccc(Nc2ncnc(N(C)c3cccc(Cl)c3)n2)cc1" , what IC50 is on record?
Result block: > 13.2 µM

Query block: Which IC50 value is on record for "c1ccc(CNc2nc3ccccc3n2-c2ncnc(Nc3cccc(Cc4nnn[nH]4)c3)n2)cc1" ?
Result block: 5.05 to 7.36 µM

Query block: Suppose we examine the compound "COc1cc(Nc2ncnc(-n3c(N[C@@H](CO)c4ccccc4)nc4ccccc43)n2)cc(OC)c1OC" ; what IC50 value has been reported?
Result block: > 8.76 µM

* * *

target: UniProt:P07949
Sequence (P07949 29-1114): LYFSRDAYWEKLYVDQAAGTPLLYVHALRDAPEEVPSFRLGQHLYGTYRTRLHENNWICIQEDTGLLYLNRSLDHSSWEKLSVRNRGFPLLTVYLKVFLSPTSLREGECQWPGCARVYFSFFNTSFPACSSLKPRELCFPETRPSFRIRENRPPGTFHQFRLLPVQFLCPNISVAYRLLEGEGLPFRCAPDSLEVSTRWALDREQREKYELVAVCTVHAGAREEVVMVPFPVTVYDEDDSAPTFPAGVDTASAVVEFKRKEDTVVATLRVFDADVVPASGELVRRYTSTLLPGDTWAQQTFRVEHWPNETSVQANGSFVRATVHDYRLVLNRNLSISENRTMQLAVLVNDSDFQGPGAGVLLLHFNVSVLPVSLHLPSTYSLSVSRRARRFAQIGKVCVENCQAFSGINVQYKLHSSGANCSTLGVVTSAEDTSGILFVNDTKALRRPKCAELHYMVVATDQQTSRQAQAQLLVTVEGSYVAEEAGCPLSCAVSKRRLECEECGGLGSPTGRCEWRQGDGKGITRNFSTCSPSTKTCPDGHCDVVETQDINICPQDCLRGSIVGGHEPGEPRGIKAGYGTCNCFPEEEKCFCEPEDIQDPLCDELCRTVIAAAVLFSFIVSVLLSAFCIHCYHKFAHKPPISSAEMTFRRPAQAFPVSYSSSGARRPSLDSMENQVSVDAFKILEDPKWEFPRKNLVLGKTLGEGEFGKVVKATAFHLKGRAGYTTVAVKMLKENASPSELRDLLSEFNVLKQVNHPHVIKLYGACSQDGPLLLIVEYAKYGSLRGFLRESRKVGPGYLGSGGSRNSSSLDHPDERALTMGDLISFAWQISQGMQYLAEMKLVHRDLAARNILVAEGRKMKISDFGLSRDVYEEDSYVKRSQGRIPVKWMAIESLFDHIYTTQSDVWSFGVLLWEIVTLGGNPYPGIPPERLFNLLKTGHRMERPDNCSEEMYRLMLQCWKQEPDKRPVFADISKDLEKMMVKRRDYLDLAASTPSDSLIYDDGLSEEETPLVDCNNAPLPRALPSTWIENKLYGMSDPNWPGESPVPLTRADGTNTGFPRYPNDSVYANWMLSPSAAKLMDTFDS
pIC50: −log10 of the molar value.
Each record here notes measured pIC50.

Record excerpt, results attached:
Query block: Recorded pIC50 for COc1cc(Nc2ncnc(Nc3ccc4cn[nH]c4c3)n2)cc(OC)c1OC [Compound 70] with UniProt:P07949, please?
Result block: 5.21 to 5.99

Query block: Can you look up pIC50 on UniProt:P07949 for COc1cc(Nc2ncnc(Nc3ccc(OCc4ccccc4)cc3)n2)cc(OC)c1 [Compound 156] ?
Result block: < 4.98

Query block: Can you look up pIC50 on UniProt:P07949 for COc1cc(Nc2ncnc(-n3c(NCc4cccc(Br)c4)nc4ccccc43)n2)cc(OC)c1OC [Compound 946] ?
Result block: 5.37 to 6.15

Others:
Query block: Write down the reported pIC50 of COc1cc(Nc2ncnc(-n3c(NCc4ccc([N+](=O)[O-])cc4)nc4ccccc43)n2)cc(OC)c1OC [Compound 952] , test system: UniProt:P07949.
Result block: > 6.12

Query block: Return pIC50 measured with UniProt:P07949 given this compound: COc1cc(Nc2ncnc(-n3c(NC(C)=O)nc4ccccc43)n2)cc(OC)c1OC [Compound 334]
Result block: 5.26 to 6.04

Query block: What is its pIC50 for UniProt:P07949? Entry: COc1cc(Nc2ncnc(N(C)c3cccc(Cl)c3)n2)cc(OC)c1OC [Compound 603]
Result block: > 6.00

Query block: # value lookup — system UniProt:P07949, readout pIC50, item COc1ccc2c(c1)c(CCNC(C)=O)cn2-c1ncnc(Nc2cc(OC)c(OC)c(OC)c2)n1 [Compound 339]
Result block: > 6.09

* * *

target: Itk (Homo sapiens, UniProt Q08881); construct: Kinases are expressed as either kinase domains or full length constructs; made in house; test: Kinase inhibition assay (33P transfer), Itk; type: biochemical; details: read-out: Itk-1
pIC50: −log10 of the molar value.
Overview of reported pIC50 across a group of compounds:

Query block: May I ask what pIC50 has been recorded for "COc1cc(Nc2ncnc(Nc3n[nH]c(Nc4ccc(Cl)cc4)n3)n2)cc(OC)c1OC" ?
Result block: 5.29 to 6.07

Query block: Could you tell me which pIC50 is on file for CCN(CC)C(=O)C1CCCN(c2ncnc(Nc3cc(OC)c(OC)c(OC)c3)n2)C1 (stereo not shown) ?
Result block: 4.99 to 5.10

Query block: What value of measured pIC50 is listed for "COc1cc(Nc2ncnc(Nc3cccc4ccccc34)n2)cc(OC)c1OCCN1CCOCC1" ?
Result block: 5.32 to 6.10

Let us examine a further case.
Query block: Consider the compound "COc1cc(Nc2ncnc(N[C@@H]3CCCc4ccccc43)n2)cc(OC)c1OC" and give its measured pIC50.
Result block: < 4.96
